Target: Toll-like receptor 4 (Homo sapiens, UniProt O00206)
Sequence (O00206 whole entry): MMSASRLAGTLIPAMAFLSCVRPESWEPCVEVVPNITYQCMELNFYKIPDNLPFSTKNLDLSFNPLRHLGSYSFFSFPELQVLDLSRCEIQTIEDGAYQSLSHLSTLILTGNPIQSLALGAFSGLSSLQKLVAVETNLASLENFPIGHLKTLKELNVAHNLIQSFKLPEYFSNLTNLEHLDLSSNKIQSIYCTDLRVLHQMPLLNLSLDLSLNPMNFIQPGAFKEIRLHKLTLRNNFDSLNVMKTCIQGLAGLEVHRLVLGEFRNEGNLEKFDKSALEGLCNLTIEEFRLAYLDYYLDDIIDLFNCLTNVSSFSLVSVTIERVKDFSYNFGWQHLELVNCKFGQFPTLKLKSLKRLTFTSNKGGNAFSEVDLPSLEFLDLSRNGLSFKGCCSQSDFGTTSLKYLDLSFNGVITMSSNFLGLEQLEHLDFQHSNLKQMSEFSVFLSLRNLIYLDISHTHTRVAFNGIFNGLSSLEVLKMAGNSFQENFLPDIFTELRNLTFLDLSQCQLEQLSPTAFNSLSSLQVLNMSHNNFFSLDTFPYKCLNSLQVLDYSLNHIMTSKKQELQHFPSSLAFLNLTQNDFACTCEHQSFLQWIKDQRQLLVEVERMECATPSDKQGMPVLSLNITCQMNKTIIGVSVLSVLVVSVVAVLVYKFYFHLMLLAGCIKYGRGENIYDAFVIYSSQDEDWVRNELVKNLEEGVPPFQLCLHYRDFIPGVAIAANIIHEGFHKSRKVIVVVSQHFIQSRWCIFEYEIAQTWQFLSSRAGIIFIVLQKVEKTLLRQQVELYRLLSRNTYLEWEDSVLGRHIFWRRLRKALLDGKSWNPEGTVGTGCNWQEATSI
Assay: Agonist activity at TLR4 in human PBMC cells assessed as induction of MIP-1beta release incubated for 20 hrs by ELISA
Format: cell-based
pEC50: −log10 of the molar value.
Tag: Satisfied if measured pEC50 is not below 9, Not satisfied if it is.

CCCCCCCCCCC[C@H](CC(=O)N[C@H]1[C@H](OC[C@H](NC(=O)C[C@@H](CCCCCCCCCCC)OCCCCCCCCCC)C(=O)O)O[C@H](CO)[C@@H](OP(=O)(O)O)[C@@H]1OC(=O)C[C@@H](CCCCCCCCCCC)OCCCCCCCCCC)OCCCCCCCCCC :: Satisfied
CCCCCCCCCCC[C@H](CC(=O)N[C@H]1[C@H](OC[C@H](NC(=O)C[C@@H](CCCCCCCCCCC)OCCCCCCCCCC)C(=O)O)O[C@H](CO)[C@@H](OS(=O)(=O)O)[C@H]1NC(=O)C[C@@H](CCCCCCCCCCC)OCCCCCCCCCC)OCCCCCCCCCC.CCN(CC)CC :: Satisfied
CCCCCCCCCCC[C@H](CC(=O)N[C@H]1[C@H](OC[C@H](NC(=O)C[C@@H](CCCCCCCCCCC)OCCCCCCCCCC)C(=O)O)O[C@H](CO)[C@@H](OP(=O)(O)O)[C@H]1NC(=O)C[C@@H](CCCCCCCCCCC)OCCCCCCCCCC)OCCCCCCCCCC.CCN(CC)CC :: Satisfied
CCCCCCCCCCC[C@H](CC(=O)NCCO[C@@H]1O[C@H](CO)[C@@H](OS(=O)(=O)O)[C@@H](NC(=O)C[C@@H](CCCCCCCCCCC)OC(=O)CCCCCCCCC)[C@H]1NC(=O)C[C@@H](CCCCCCCCCCC)OC(=O)CCCCCCCCC)OC(=O)CCCCCCCCC.CCN(CC)CC :: Not satisfied
CCCCCCCCCCCCCCCC(=O)O[C@H](CCCCCCCCCCC)CC(=O)N[C@@H]1[C@@H](O)[C@H](O)[C@@H](CO[C@@H]2O[C@H](CO)[C@@H](OP(=O)(O)O)[C@H](OC(=O)C[C@@H](CCCCCCCCCCC)OC(=O)CCCCCCCCCCCCC)[C@H]2NC(=O)C[C@@H](CCCCCCCCCCC)OC(=O)CCCCCCCCCCC)O[C@@H]1O :: Not satisfied

Here is another molecule to look at.
Is it the case that CCCCCCCCCCC[C@H](CC(=O)NCCO[C@@H]1O[C@H](CO)[C@@H](OP(=O)(O)O)[C@H](OC(=O)C[C@@H](CCCCCCCCCCC)OC(=O)CCCCCCCCC)[C@H]1NC(=O)C[C@@H](CCCCCCCCCCC)OC(=O)CCCCCCCCC)OC(=O)CCCCCCCCC has pEC50 reaching or exceeding 9?
Not satisfied

* * *

Assay: Aqueous stability of the compound assessed as drug degradation at 40 degreeC and measured upto 12 months by LC-MS analysis
Assay type: physicochemical
Details: aqueous solution, read-out: Drug degradation
reported-endpoint: degraded at 8760 h (%)
The answer is to be given in %; state only the numeric part.

Item under review: CCCCCCCCCCC[C@H](CC(=O)NCCO[C@@H]1O[C@H](CO)[C@@H](OS(=O)(=O)O)[C@@H](NC(=O)C[C@@H](CCCCCCCCCCC)OC(=O)CCCCCCCCC)[C@H]1NC(=O)C[C@@H](CCCCCCCCCCC)OC(=O)CCCCCCCCC)OC(=O)CCCCCCCCC.CCN(CC)CC . Reported degraded at 8760 h?
8

* * *

Biological target: UniProt Q9QUK6
Sequence (Q9QUK6 whole entry): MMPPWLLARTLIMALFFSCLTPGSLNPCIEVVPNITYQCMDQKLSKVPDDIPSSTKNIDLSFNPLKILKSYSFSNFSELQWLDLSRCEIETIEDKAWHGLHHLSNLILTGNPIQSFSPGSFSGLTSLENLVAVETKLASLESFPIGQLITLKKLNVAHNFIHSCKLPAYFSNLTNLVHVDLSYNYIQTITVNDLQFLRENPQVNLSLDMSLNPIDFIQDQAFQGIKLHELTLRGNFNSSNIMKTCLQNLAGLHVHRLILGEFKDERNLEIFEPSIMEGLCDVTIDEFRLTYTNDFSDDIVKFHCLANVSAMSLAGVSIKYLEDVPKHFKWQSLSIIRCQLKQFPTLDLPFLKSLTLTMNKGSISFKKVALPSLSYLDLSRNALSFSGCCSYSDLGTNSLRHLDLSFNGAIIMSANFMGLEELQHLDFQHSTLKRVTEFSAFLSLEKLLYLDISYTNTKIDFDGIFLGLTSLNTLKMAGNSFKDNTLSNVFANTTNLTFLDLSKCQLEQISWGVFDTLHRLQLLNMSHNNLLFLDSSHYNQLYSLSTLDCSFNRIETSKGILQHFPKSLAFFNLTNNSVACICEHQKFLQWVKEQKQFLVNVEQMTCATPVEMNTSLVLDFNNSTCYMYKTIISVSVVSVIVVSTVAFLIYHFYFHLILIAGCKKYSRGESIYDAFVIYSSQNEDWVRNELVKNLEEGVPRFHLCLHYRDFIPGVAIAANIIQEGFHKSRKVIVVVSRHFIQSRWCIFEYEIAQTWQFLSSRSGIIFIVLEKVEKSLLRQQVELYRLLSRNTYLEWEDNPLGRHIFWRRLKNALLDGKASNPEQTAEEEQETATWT
Assay: Agonist activity at TLR4 in mouse RAW264.7 cells assessed as induction of MIP-1beta release incubated for 24 hrs by ELISA
Type: cell-based
EC50 values, listed per item
Write the number in nM without appending the unit.

CCCCCCCCCCC[C@H](CC(=O)NCCO[C@@H]1O[C@H](CO)[C@@H](OS(=O)(=O)O)[C@@H](NC(=O)C[C@@H](CCCCCCCCCCC)OC(=O)CCCCCCCCC)[C@H]1NC(=O)C[C@@H](CCCCCCCCCCC)OC(=O)CCCCCCCCC)OC(=O)CCCCCCCCC.CCN(CC)CC :: 0.31

Please find the next compound below.
Given the entry CCCCCCCCCCC[C@H](CC(=O)N[C@H]1[C@H](OC[C@H](NC(=O)C[C@@H](CCCCCCCCCCC)OCCCCCCCCCC)C(=O)O)O[C@H](CO)[C@@H](OP(=O)(O)O)[C@@H]1OC(=O)C[C@@H](CCCCCCCCCCC)OCCCCCCCCCC)OCCCCCCCCCC , report its measured EC50.
0.015

* * *

Target: Toll-like receptor 4 (Homo sapiens, UniProt O00206)
Assay: Agonist activity at human TLR4 in human HEK-Blue hTLR4 cells assessed as NF-kappaB activation incubated for 48 hrs by SEAP reporter gene based Quanti-blue assay
Assay type: cell-based
reported-endpoint: pEC50
# log scale: pEC50 equals minus log10 of the concentration in mol/L

CCCCCCCCCCC[C@H](CC(=O)N[C@H]1[C@H](OC[C@H](NC(=O)C[C@@H](CCCCCCCCCCC)OCCCCCCCCCC)C(=O)O)O[C@H](CO)[C@@H](OP(=O)(O)O)[C@@H]1OC(=O)C[C@@H](CCCCCCCCCCC)OCCCCCCCCCC)OCCCCCCCCCC :: 9.03
CCCCCCCCCCC[C@H](CC(=O)NCCO[C@@H]1O[C@H](CO)[C@@H](OP(=O)(O)O)[C@H](OC(=O)C[C@@H](CCCCCCCCCCC)OC(=O)CCCCCCCCC)[C@H]1NC(=O)C[C@@H](CCCCCCCCCCC)OC(=O)CCCCCCCCC)OC(=O)CCCCCCCCC :: 6.76
CCCCCCCCCCC[C@H](CC(=O)NCCO[C@@H]1O[C@H](CO)[C@@H](OP(=O)(O)O)[C@@H](NC(=O)C[C@@H](CCCCCCCCCCC)OC(=O)CCCCCCCCC)[C@H]1NC(=O)C[C@@H](CCCCCCCCCCC)OC(=O)CCCCCCCCC)OC(=O)CCCCCCCCC.CCN(CC)CC :: 7.04
CCCCCCCCCCCCCCCC(=O)O[C@H](CCCCCCCCCCC)CC(=O)N[C@@H]1[C@@H](O)[C@H](O)[C@@H](CO[C@@H]2O[C@H](CO)[C@@H](OP(=O)(O)O)[C@H](OC(=O)C[C@@H](CCCCCCCCCCC)OC(=O)CCCCCCCCCCCCC)[C@H]2NC(=O)C[C@@H](CCCCCCCCCCC)OC(=O)CCCCCCCCCCC)O[C@@H]1O :: 6.61
CCCCCCCCCCC[C@H](CC(=O)NCCO[C@@H]1O[C@H](CO)[C@@H](OS(=O)(=O)O)[C@@H](NC(=O)C[C@@H](CCCCCCCCCCC)OC(=O)CCCCCCCCC)[C@H]1NC(=O)C[C@@H](CCCCCCCCCCC)OC(=O)CCCCCCCCC)OC(=O)CCCCCCCCC.CCN(CC)CC :: 6.35

// pEC50 lookup, key: CCCCCCCCCCC[C@H](CC(=O)N[C@H]1[C@H](OC[C@H](NC(=O)C[C@@H](CCCCCCCCCCC)OCCCCCCCCCC)C(=O)O)O[C@H](CO)[C@@H](OP(=O)(O)O)[C@H]1NC(=O)C[C@@H](CCCCCCCCCCC)OCCCCCCCCCC)OCCCCCCCCCC.CCN(CC)CC
8.10

State the recorded pEC50 for this entry: CCCCCCCCCCC[C@H](CC(=O)N[C@H]1[C@H](OC[C@H](NC(=O)C[C@@H](CCCCCCCCCCC)OCCCCCCCCCC)C(=O)O)O[C@H](CO)[C@@H](OS(=O)(=O)O)[C@H]1NC(=O)C[C@@H](CCCCCCCCCCC)OCCCCCCCCCC)OCCCCCCCCCC.CCN(CC)CC
7.58

I would be grateful if you could share the reported pEC50 for CCCCCCCCCCCCCC(=O)O[C@H](CCCCCCCCCCC)CC(=O)O[C@@H]1[C@@H](NC(=O)C[C@H](CCCCCCCCCCC)OC(=O)CCCCCCCCCCCCC)[C@H](OC[C@H]2O[C@H](O)[C@H](NC(=O)C[C@H](O)CCCCCCCCCCC)[C@@H](OC(=O)C[C@H](O)CCCCCCCCCCC)[C@@H]2O)O[C@H](CO)[C@H]1OP(=O)(O)O .
8.21

* * *

Reported pEC50 values are given for each entry in this list.
Biological target: Toll-like receptor 4 (Homo sapiens)
Experiment: Agonist activity at TLR4 in human PBMC cells assessed as induction of IL-1beta release incubated for 20 hrs by ELISA
Assay type: cell-based
For clarity, pEC50 is expressed as the negative log10 of concentration in mol/L.

CCCCCCCCCCC[C@H](CC(=O)N[C@H]1[C@H](OC[C@H](NC(=O)C[C@@H](CCCCCCCCCCC)OCCCCCCCCCC)C(=O)O)O[C@H](CO)[C@@H](OP(=O)(O)O)[C@@H]1OC(=O)C[C@@H](CCCCCCCCCCC)OCCCCCCCCCC)OCCCCCCCCCC :: 10.55

Please provide the recorded pEC50 for CCCCCCCCCCC[C@H](CC(=O)N[C@H]1[C@H](OC[C@H](NC(=O)C[C@@H](CCCCCCCCCCC)OCCCCCCCCCC)C(=O)O)O[C@H](CO)[C@@H](OP(=O)(O)O)[C@H]1NC(=O)C[C@@H](CCCCCCCCCCC)OCCCCCCCCCC)OCCCCCCCCCC.CCN(CC)CC , tested on Toll-like receptor 4 (Homo sapiens).
9.55
